# Tested on: HCT-8 host cells (Hs18S)
# conditions: human, 41 h, 10 μM
Counter-ions that a name gives are not always drawn.
measurementType: Hs18S ΔCT
Answers are plain numbers.

Example entries begin here.
# compound, targetOrTestSystem, Hs18S ΔCT
records = [
    ("COC(=O)C(O)c1ccccc1 (stereo not drawn)", "HCT-8 host cells (Hs18S)", 0.31),
    ("CCCCCCCCCCCCCCCCCCOCC(O)CO (stereo not drawn)", "HCT-8 host cells (Hs18S)", -0.57),
    ("CC(=O)O[C@@H]1C[C@H]2C(C)(C)C(=O)C=C[C@]2(C)[C@H]2CC[C@@]3(C)[C@H](c4ccoc4)OC(=O)[C@H]4O[C@]43[C@@]21C", "HCT-8 host cells (Hs18S)", 0.02),
    ("COc1ccc(-c2cc(=O)c3c(O)c(OC)c(O[C@@H]4O[C@H](CO[C@@H]5O[C@@H](C)[C@H](O)[C@@H](O)[C@H]5O)[C@@H](O)[C@H](O)[C@H]4O)cc3o2)cc1", "HCT-8 host cells (Hs18S)", 1.99),
    ("C[C@H](CCC(=O)O)[C@H]1CC[C@H]2[C@@H]3CC[C@@H]4C[C@H](O)CC[C@]4(C)[C@H]3C[C@H](O)[C@]12C", "HCT-8 host cells (Hs18S)", 0.55),
    ("O=C(O)c1cc(=O)[nH]c(=O)[nH]1", "HCT-8 host cells (Hs18S)", -0.39),
    ("CC[C@]12CCCN3CCc4c(n(c5ccccc45)[C@@](O)(C(=O)OC)C1)[C@@H]32", "HCT-8 host cells (Hs18S)", 0.12),
    ("O=c1cc(-c2ccccc2)oc2cc(O)c(O)c(O)c12", "HCT-8 host cells (Hs18S)", 0.10),
]

State the recorded Hs18S ΔCT for every item in the following list.
1. COc1ccc2cc1Oc1ccc(cc1)C[C@H]1c3c(cc4c(c3Oc3cc5c(cc3OC)CCN(C)[C@@H]5C2)OCO4)CCN1C
2. COc1ccc2[nH]cc(CCNC(C)=O)c2c1
3. COC1=C(O)C(=O)c2c(cc3oc(C(C)=O)c(O)c3c2O)C1=O
4. O=C(/C=C/c1ccccc1)c1ccc(O)cc1 [4'-HYDROXYCHALCONE]
5. [H]/N=C(/N)N[C@H]1[C@H](O)[C@@H](O)[C@H](O[C@@H]2O[C@@H](C)[C@](O)(C=O)[C@H]2O[C@@H]2O[C@@H](CO)[C@H](O)[C@@H](O)[C@@H]2NC)[C@@H](N/C(N)=N\[H])[C@@H]1O [STREPTOMYCIN SULFATE]

[0.33, -1.56, -0.03, 0.33, -0.10]

Answer for every listed entry: what is its Hs18S ΔCT? The entries follow.
1. COc1ccc(C(C)=O)c(O)c1
2. CC1(C)C(=O)C=C[C@@]2(C)C1=C(O)C(=O)[C@]1(C)[C@@H]2CC[C@@]2(C)[C@H](c3ccoc3)C[C@H]3O[C@]321

1: 0.01; 2: 1.38

src = paper PMC6736568
